# Test system: SK-OV-3 ovarian
# experiment-summary: NCI-60 one-dose screen, 48 h
# test-parameters: 10 µM unless noted
This is part of a sample that, as a whole, favours compounds with a hit. Of some 83,000 tested, about 20% had one in any assay. The source made the active and inactive calls. Rule for the calls: active = growth percent below 10; inactive = the rest.
Please state which outcome applies, choosing from active, inactive

Q: Given `Cc1cnc(C(=O)NNc2nc3cc(F)ccc3n3c(C(=O)N4CC5CC(C4)N5)ccc23)cn1` , state the outcome it received in this test.
Result: inactive

Q: Please let me know the test result on file for `Cc1ccc(NCC(=O)Cn2cc(COc3ccc(C=Nc4cnc5ccccc5c4)cc3)nn2)cc1` .
Result: inactive

Q: Name the outcome recorded for `CN1CCN(c2ccc(C(=O)/C=C/c3ccc(Br)cc3)cc2)CC1` in the assay.
Result: inactive

Q: Test call for this molecule, please: Cc1ccc(C2CC(c3ccc(S(=O)(=O)NCCNc4nc(Nc5ccc(F)cc5)nc(N(C)C)n4)cc3)=Nc3c(N)nc(N)nc3N2)cc1 (stereo unspecified)
Result: inactive

Q: Hi, sorry to bother you, what did the test record for C#CCOc1cc(N(CC)CC)ccc1C(C(=O)NC(C)(C)C)N(C(=O)C1CCc2cc(F)ccc2O1)c1ccccc1Br (stereo unspecified) ?
Result: inactive

Q: Please share the test call associated with COCOc1cc2c(=O)c(C)c(C(=O)N[C@@H](Cc3ccccc3)C(O)C(=O)NCc3ccccc3)oc2cc1OC (stereo partly specified) .
Result: inactive

Q: Which result was noted for this molecule in the test: `COc1ccc(NC(=O)Nc2ccc(OCc3ccc(F)cc3)cc2)cc1`
Result: inactive

Q: What was the test verdict on `CN(C)c1nc(NCCNS(=O)(=O)c2ccc(C(=O)/C=C/c3ccc(F)cc3)cc2)nc(Nc2ccc(F)cc2)n1` ?
Result: active

Q: Entry `CC(=O)Oc1ccccc1C(=O)[Se]CC(=O)Nc1cccc(C(F)(F)F)c1` : call = ?
Result: active

Q: # lookup: test call for `COc1ccc(-c2nc3cc(C)ccc3n2CC(=O)N=Nc2c(O)[nH]c3ccccc23)cc1`
Result: inactive

Q: Give the logged outcome of this assay for the following molecule: CCN1C(=O)N(CC)C2NNC(Sc3c(C(=O)O)c4ccccc4n(C4CCCC4)c3=O)=NC21 (stereo unspecified)
Result: inactive

Q: Identify the outcome logged in this assay for the molecule shown: CC1=C(C(=O)OC(C)C)C(c2cccc(O)c2)NC(=S)N1 (stereo unspecified)
Result: inactive

Q: Which result was noted for this molecule in the test: O=C1CC(Sc2n[nH]c(-c3ccncc3)n2)C(=O)N1c1ccc(Br)cc1 (stereo unspecified)
Result: inactive

Q: For `COc1ccc2c(c1)c(-c1cc3nc(-c4cn(C)c5ncccc45)cc(N)n3n1)cn2C` , which call appears in the assay record?
Result: active

Q: What did this assay record as the result for `NS(=O)(=O)c1ccc(-n2cc(-c3cccc(NC(=O)c4cc(C(F)(F)F)cc(C(F)(F)F)c4)c3)nn2)cc1` ?
Result: inactive

Q: What classification did CCCCCCCS(=O)(=O)N1CCCC(C(=O)Nc2nc3ccc(NC(=O)c4ccc(F)c(OC)c4F)cc3s2)C1 (stereo unspecified) end up with in this test?
Result: inactive

Q: What was the test verdict on CC(=O)OC[C@@]1(C)C2CC[C@]3(C)C(CC=C4C5CC(C)(C)CC[C@]5(C(=O)Nc5cccc(C)c5)CC[C@]43C)[C@@]2(C)C[C@@H](OC(C)=O)[C@@H]1OC(C)=O (stereo partly specified) ?
Result: inactive

Q: Just curious, what result did `NS(=O)(=O)c1ccc(N=Nc2c(O)n(CC(=O)Nc3ccccc3Cl)c3ccccc23)cc1` get here?
Result: inactive

Q: State the result this test recorded for `S=C(Nc1ccc(OCc2nc3ccccc3[nH]2)cc1)NC1CCCCC1` .
Result: inactive

Q: Each molecule tested received a call. Report the one for CCS(=O)(=O)N1CCCC(C(=O)Nc2nc3ccc(NC(=O)c4ccc(F)c(OC)c4F)cc3s2)C1 (stereo unspecified) .
Result: inactive

Q: Record lookup: outcome of this test for `COc1ccc(-c2c(Nn3cnnn3)no[n+]2[O-])cc1` ?
Result: inactive

Q: Hello, I am checking results. What call was entered for `COC(=O)C[C@](O)(CCCC(C)(C)O)C(=O)O[C@H]1C(OC)=C[C@@]23CCCN2CCc2cc4c(cc2[C@@H]13)OCO4` ?
Result: active

Q: Each molecule tested received a call. Report the one for COc1c(F)ccc(C(=O)Nc2ccc3nc(NC(=O)C4CCCN(S(=O)(=O)C5CC5)C4)sc3c2)c1F (stereo unspecified) .
Result: inactive

Q: Name the outcome recorded for `COc1ccc2[nH]cc(-c3nnc(N)nc3-c3cn(C)c4ncc(Br)cc34)c2c1` in the assay.
Result: inactive

Q: Hey, what did the test say about `CN(C)c1ccnc(CNCCSC2(c3ccc(C(F)(F)F)cc3)c3ccccc3CCc3ccccc32)c1` ?
Result: active

Q: // outcome(item) with item = `O=C(COc1ccc2c(c1)CCCC(=O)N2)NCc1ccccc1`
Result: inactive

Q: Entry CC12CC[C@@H]3[C@]4(C)COC(c5cn[nH]c5-c5ccc(Cl)cc5)O[C@@H]4CC[C@@]3(C)[C@@H]1CC(C1=CCOC1=O)O2 (stereo partly specified) : call = ?
Result: inactive

Q: Tell me the recorded outcome of this test for Cc1ccc(NC(=O)[C@]23CCC(C)(C)CC2C2=CCC4[C@@]5(C)C[C@@H](O)[C@H](O)[C@@](C)(CO)C5CC[C@@]4(C)[C@]2(C)CC3)cc1 (stereo partly specified) .
Result: inactive

Q: Outcome logged for `COc1ccc2nc(Nc3cccc(NC(=O)c4ccc(CN5CCCN(C)CC5)c(C(F)(F)F)c4)c3)ccc2c1` in this assay:
Result: active

Q: Call for entry `O=C(Cn1nc(-c2ccccc2)ccc1=O)N/N=C/c1ccc(N2CCOCC2)cc1` :
Result: inactive

Q: Assay result, entry CC1=C(C(=O)c2ccccc2)C(c2cccc3ccccc23)n2c(nc3ccccc32)N1 (stereo unspecified) — outcome?
Result: inactive
